Entry source: PubChem BioAssay AID1159580

- testMethodNotes: chemical genetic growth profiling, strain panel (AID 1159580);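 note: tested at 20 µM; growth read once vehicle control cultures reached saturation at 30 °C; 1 = growth at the plate median or of vehicle wells; lower values mean less growth of the strain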
- particulars: S. cerevisiae deletion strains, growth OD, locus YPL106C, strain sse1, hits give low values
Screen size: about 5,500 compounds; about 2,000 (36%) were called active. Another 18% or so got no clear call; they are omitted. The list shows a part of the results.
reportedProperty: normalized growth
Answer with the value's number alone.

CC(=O)N[C@@H](CC(=O)O)C(=O)O = 1.01

normalized growth for C=C1CC2C(CCC3(C)C(=O)CCC23)C2(C)C=CC(=O)C=C12 (configuration not stated) is 0.95

normalized growth for COc1c2occc2cc2ccc(=O)oc12 is 0.899

normalized growth for COc1cc2ccc(=O)oc2cc1O is 0.899

normalized growth for Cc1ncc([N+](=O)[O-])n1CCO is 0.943

normalized growth for C[C@]12C=CC(=O)C=C1CCC1C2C(=O)C[C@@]2(C)C1CC[C@]2(O)C(=O)CO (some centres not stated) is 1.01

normalized growth for O=C1OC(=O)C2C3CCC(O3)C12 (configuration not stated) is 1.04
